- ASSAY_SUMMARY: Cytotoxicity against mouse 3T3 cells by neutral red uptake assay
- Format: cell-based
- CONDITIONS: NIH3T3 cells, read-out: TC50 (the source's name)

| INPUT_SMILES | CC50 |
| --- | --- |
| CCCCCCCC/C=C\c1c(C)c(/C=C\CCCCCCCC)c2[n+](c1C)CCC2 | > 22 µM |

====

- Test system: Plasmodium falciparum
- ASSAY_SUMMARY: Antiplasmodial activity against Plasmodium falciparum Dd2 schizonts form infected in erythrocytes assessed as reduction in ring stage formation at 0.5 uM after 6 hrs by Giemsa staining based light microscopic method
- Type: functional, organism-based
Active and inactive are the calls of the source. The calls are words filed in the database; no cut-off is given here.

| INPUT_SMILES | Activity |
| --- | --- |
| CCCCCCCC/C=C/c1c(C)cc2[n+](c1C)CCC2 | inactive |
| CCCCCCCC/C=C/c1c(C)cc(C)[n+]2c1CCC2 | inactive |
| CCCCCCCCCCc1c(C)c(CCCCCCCCCC)c2[n+](c1C)CCCC2 | inactive |
